The measured values listed here are drawn from patent US20150105316A1.

Measured IP1 G-protein assay pEC50 by item
Biological target: T1, human angiotensin 2 type 1 receptor (human, UniProt P30556 1-359)
T1 sequence (looked up): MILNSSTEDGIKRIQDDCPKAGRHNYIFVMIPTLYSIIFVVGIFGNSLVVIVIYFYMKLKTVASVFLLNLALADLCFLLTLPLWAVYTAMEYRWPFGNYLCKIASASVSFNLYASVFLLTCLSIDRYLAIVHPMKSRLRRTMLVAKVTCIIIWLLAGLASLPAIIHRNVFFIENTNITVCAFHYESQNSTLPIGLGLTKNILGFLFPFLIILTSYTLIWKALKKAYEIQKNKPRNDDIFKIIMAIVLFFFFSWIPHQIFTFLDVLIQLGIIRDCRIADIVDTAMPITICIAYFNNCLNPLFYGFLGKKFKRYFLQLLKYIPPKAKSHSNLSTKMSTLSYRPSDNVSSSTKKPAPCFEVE
Test: cell-based or functional assay
Where no end group is shown, it is not given here. [ ]: non-standard residue; d: D form. The star is where a group is joined. Ac6c = NC1(C(=O)O)CCCCC1; cyPen = not defined here; Ac5c = NC1(C(=O)O)CCCC1; NHiPr = CC(C)N*; Sar = CNCC(=O)O

Binder: [Sar]RVY[Ac6c]HPV [SEQ ID NO: 13 (Sar-Arg-Val-Tyr-cyHex-His-Pro-Val)]
Observed Value: > 9.2
--
Binder: [Sar]RVY[cyPen]HPA (reading uncertain; also: printed as Sar-Arg-Val-Tyr-cyPen-His-Pro-Ala) [SEQ ID NO: 3 (Sar-Arg-Val-Tyr-cyPen-His-Pro-Ala)]
Observed Value: > 9.2
--
Binder: [Sar]RVY[Ac5c]HPI [SEQ ID NO: 18 (Sar-Arg-Val-Tyr-cyPen-His-Pro-Ile)]
Observed Value: < 9.2
--
Binder: [Sar]RVY[Ac5c]HPF [SEQ ID NO: 24 (Sar-Arg-Val-Tyr-cyPen-His-Pro-Phe)]
Observed Value: < 9.2
--
Binder: [Sar]RVY[Ac6c]HPT [SEQ ID NO: 14 (Sar-Arg-Val-Tyr-cyHex-His-Pro-Thr)]
Observed Value: > 9.2

# input binder: [Sar]KVY[Ac6c]HPA [SEQ ID NO: 51 (Sar-Lys-Val-Tyr-cyHex-His-Pro-Ala)] ; wanted: its IP1 G-protein assay pEC50
< 9.2

# input binder: [Sar]RVY[Ac6c]HP-NHiPr [SEQ ID NO: 46 (Sar-Arg-Val-Tyr-cyHex-His-Pro-NH-i-Pr)] ; wanted: its IP1 G-protein assay pEC50
< 9.2
